Tested on: SETVI Foxtail, Green
Assay: Preemergence herbicidal evaluation, SETVI
Format: in vivo, Setaria viridis, (L.) Beau
Set-up: scale not given here
Settings: preemergence, rate 0.016 kg/ha
Kindly state SETVI herbicidal rating for each of the entries shown.
// no unit, no text: just the number

Using known records, supply SETVI herbicidal rating for COc1ccccc1-n1nnc2cc(F)c(-n3c(=O)cc(C(F)(F)F)n(C)c3=O)cc21 [Example 16]
9.0

Using known records, supply SETVI herbicidal rating for COc1ccc(C)cc1-n1nnc2cc(F)c(-n3c(=O)cc(C(F)(F)F)n(C)c3=O)cc21 [Example 18]
9.0

Using known records, supply SETVI herbicidal rating for COCc1ccccc1-n1nnc2cc(F)c(-n3c(=O)cc(C(F)(F)F)n(C)c3=O)cc21 [Example 26]
2.0

Using known records, supply SETVI herbicidal rating for C=CCOc1ccc(-n2nnc3cc(F)c(-n4c(=O)cc(C(F)(F)F)n(C)c4=O)cc32)c(C)c1 [Example 43]
0.0

Using known records, supply SETVI herbicidal rating for COC(=O)C(C)Oc1ccc(C)cc1-n1nnc2cc(F)c(-n3c(=O)cc(C(F)(F)F)n(C)c3=O)cc21 (stereo not shown) [Example 41]
0.0

Using known records, supply SETVI herbicidal rating for CCc1cccc(-n2nnc3cc(F)c(-n4c(=O)cc(C(F)(F)F)n(C)c4=O)cc32)c1 [Example 29]
6.0

Using known records, supply SETVI herbicidal rating for CC(C)c1ccc(-n2nnc3cc(F)c(-n4c(=O)cc(C(F)(F)F)n(C)c4=O)cc32)cc1 [Example 21]
0.0

Using known records, supply SETVI herbicidal rating for COC(=O)COc1ccc(-n2nnc3cc(F)c(-n4c(=O)cc(C(F)(F)F)n(C)c4=O)cc32)c(C)c1 [Example 39]
0.0

Using known records, supply SETVI herbicidal rating for COC(=O)COc1ccccc1-n1nnc2cc(F)c(-n3c(=O)cc(C(F)(F)F)n(C)c3=O)cc21 [Example 35]
0.0

Using known records, supply SETVI herbicidal rating for CCc1ccc(-n2nnc3cc(F)c(-n4c(=O)cc(C(F)(F)F)n(C)c4=O)cc32)cc1 [Example 17]
6.5

Using known records, supply SETVI herbicidal rating for C#CCOC(=O)COc1ccc(C)c(-n2nnc3cc(F)c(-n4c(=O)cc(C(F)(F)F)n(C)c4=O)cc32)c1 [Example 36]
0.0

Using known records, supply SETVI herbicidal rating for Cc1ccc(-n2nnc3cc(F)c(-n4c(=O)cc(C(F)(F)F)n(C)c4=O)cc32)cc1C [Example 23]
3.0

Using known records, supply SETVI herbicidal rating for C#CCOC(=O)COc1ccc(C)cc1-n1nnc2cc(F)c(-n3c(=O)cc(C(F)(F)F)n(C)c3=O)cc21 [Example 40]
0.0

Using known records, supply SETVI herbicidal rating for COc1ccc(Cl)cc1-n1nnc2cc(F)c(-n3c(=O)cc(C(F)(F)F)n(C)c3=O)cc21 [Example 30]
4.0

Using known records, supply SETVI herbicidal rating for Cc1ccc(O)c(-n2nnc3cc(F)c(-n4c(=O)cc(C(F)(F)F)n(C)c4=O)cc32)c1 [Example 31]
0.0

Using known records, supply SETVI herbicidal rating for COc1ccc(C)c(-n2nnc3cc(F)c(-n4c(=O)cc(C(F)(F)F)n(C)c4=O)cc32)c1 [Example 22]
0.0

Using known records, supply SETVI herbicidal rating for Cc1ccc(-n2nnc3cc(F)c(-n4c(=O)cc(C(F)(F)F)n(C)c4=O)cc32)cc1 [Example 19]
4.5

Using known records, supply SETVI herbicidal rating for Cc1ccccc1-n1nnc2cc(F)c(-n3c(=O)cc(C(F)(F)F)n(C)c3=O)cc21 [Example 20]
0.0

Using known records, supply SETVI herbicidal rating for COc1ccc(-n2nnc3cc(F)c(-n4c(=O)cc(C(F)(F)F)n(C)c4=O)cc32)cc1 [Example 27]
9.0

Using known records, supply SETVI herbicidal rating for COc1ccc(-n2nnc3cc(F)c(-n4c(=O)cc(C(F)(F)F)n(C)c4=O)cc32)c(C)c1 [Example 24]
0.0

Using known records, supply SETVI herbicidal rating for Cc1cc(O)ccc1-n1nnc2cc(F)c(-n3c(=O)cc(C(F)(F)F)n(C)c3=O)cc21 [Example 33]
0.0

Using known records, supply SETVI herbicidal rating for COC(=O)COc1ccc(C)c(-n2nnc3cc(F)c(-n4c(=O)cc(C(F)(F)F)n(C)c4=O)cc32)c1 [Example 38]
0.0

Using known records, supply SETVI herbicidal rating for Cc1ccc(O)cc1-n1nnc2cc(F)c(-n3c(=O)cc(C(F)(F)F)n(C)c3=O)cc21 [Example 32]
0.0

Using known records, supply SETVI herbicidal rating for Cc1ccc(OCC(=O)O)cc1-n1nnc2cc(F)c(-n3c(=O)cc(C(F)(F)F)n(C)c3=O)cc21 [Example 37]
0.0

Using known records, supply SETVI herbicidal rating for CCc1ccccc1-n1nnc2cc(F)c(-n3c(=O)cc(C(F)(F)F)n(C)c3=O)cc21 [Example 25]
0.0

Using known records, supply SETVI herbicidal rating for COC(=O)COc1ccc(C)cc1-n1nnc2cc(F)c(-n3c(=O)cc(C(F)(F)F)n(C)c3=O)cc21 [Example 34]
7.0

Using known records, supply SETVI herbicidal rating for CCc1ccc(-n2nnc3cc(F)c(-n4c(=O)cc(C(F)(F)F)n(C)c4=O)cc32)cc1COC [Example 28]
0.0

Using known records, supply SETVI herbicidal rating for C=CCOc1ccc(C)cc1-n1nnc2cc(F)c(-n3c(=O)cc(C(F)(F)F)n(C)c3=O)cc21 [Example 42]
3.0
